test system: Escherichia coli; experiment: Antibacterial activity against Escherichia coli assessed as inhibition of bacterial growth measured after 24 hrs incubation; format: functional
Response field label takes 1 (yes) when MIC is strictly below 1 µg/mL and 0 (no) in all other cases.

CCCCCCCCn1cc(C(=O)O)c(=O)c2cc(F)c(N3CCN(C(=O)/C(C#N)=C/c4cn(CC(=O)OCC)c5ccccc45)CC3)cc21 : 1 (yes)
C=CCn1cc(/C=C(\C#N)C(=O)N2CCN(c3cc4c(cc3F)c(=O)c(C(=O)O)cn4CC)CC2)c2ccccc21 : 0 (no)
CCn1cc(C(=O)O)c(=O)c2cc(F)c(N3CCN(C(=O)/C(C#N)=C/c4c[nH]c5ccccc45)CC3)cc21 : 1 (yes)

Check if MIC falls below 1 µg/mL for CCOC(=O)Cn1cc(/C=C(\C#N)C(=O)N2CCN(c3cc4c(cc3F)c(=O)c(C(=O)O)cn4CC)CC2)c2ccccc21 .
1 (yes)

Report whether reported MIC is lower than 1 µg/mL (strictly) for CCn1cc(C(=O)O)c(=O)c2cc(F)c(N3CCN(C(=O)/C(C#N)=C/c4c[nH]c5ccc(Cl)cc45)CC3)cc21
1 (yes)

Given the entry CCn1cc(C(=O)O)c(=O)c2cc(F)c(N3CCN(C(=O)/C(C#N)=C/c4cn(CC5CC5)c5ccccc45)CC3)cc21 , would its reported MIC be below 1 µg/mL?
0 (no)

In the record for CCn1cc(C(=O)O)c(=O)c2cc(F)c(N3CCN(C(=O)/C(C#N)=C/c4cn(CC(N)=O)c5ccccc45)CC3)cc21 , is MIC less than 1 µg/mL?
1 (yes)

Regarding CCn1cc(C(=O)O)c(=O)c2cc(F)c(N3CCN(C(=O)/C(C#N)=C/c4cn(CC5CCCC5)c5ccccc45)CC3)cc21 , kindly confirm whether its MIC is beneath 1 µg/mL.
0 (no)

Determine if CCn1cc(C(=O)O)c(=O)c2cc(F)c(N3CCNCC3)cc21 shows MIC strictly lower than 1 µg/mL.
0 (no)

----------
tested on: Pseudomonas aeruginosa; experiment: Antibacterial activity against Pseudomonas aeruginosa assessed as inhibition of bacterial growth measured after 24 hrs incubation; assay type: functional
Listing: MIC of selected compounds
Return type: number; implicit unit µg/mL.

# value lookup — system Pseudomonas aeruginosa, readout MIC, item C=CCn1cc(C(=O)O)c(=O)c2cc(F)c(N3CCN(C(=O)/C(C#N)=C/c4cn(CC(=O)OCC)c5ccccc45)CC3)cc21
256

What reported MIC corresponds to C=CCn1cc(/C=C(\C#N)C(=O)N2CCN(c3cc4c(cc3F)c(=O)c(C(=O)O)cn4CC)CC2)c2ccccc21 on Pseudomonas aeruginosa?
1

# returns recorded MIC (system: Pseudomonas aeruginosa) for CCCCCCCCn1cc(/C=C(\C#N)C(=O)N2CCN(c3cc4c(cc3F)c(=O)c(C(=O)O)cn4CC)CC2)c2ccccc21
16

Which measured MIC belongs to CCn1cc(C(=O)O)c(=O)c2cc(F)c(N3CCN(C(=O)/C(C#N)=C/c4c[nH]c5ccccc45)CC3)cc21 , tested on Pseudomonas aeruginosa?
1

// fetch Pseudomonas aeruginosa MIC for CCn1cc(C(=O)O)c(=O)c2cc(F)c(N3CCN(C(=O)/C(C#N)=C/c4cn(CCO)c5ccccc45)CC3)cc21
1

What is its MIC for Pseudomonas aeruginosa? Entry: CCn1cc(C(=O)O)c(=O)c2cc(F)c(N3CCN(C(=O)/C(C#N)=C/c4cn(CC(N)=O)c5ccccc45)CC3)cc21
8

Hi! What's the reported MIC for CCn1cc(C(=O)O)c(=O)c2cc(F)c(N3CCN(C(=O)/C(C#N)=C/c4cn(CC(=O)N5CCOCC5)c5ccccc45)CC3)cc21 on Pseudomonas aeruginosa?
1

----------
# log10(MIC) per entry
tested on: Staphylococcus aureus; experiment: Antibacterial activity against Staphylococcus aureus assessed as inhibition of bacterial growth measured after 24 hrs incubation; format: functional
Hello, just confirming the data are log10 of MIC with units of µg/mL.

CCn1cc(C(=O)O)c(=O)c2cc(F)c(N3CCN(C(=O)/C(C#N)=C/c4cn(Cc5ccccc5)c5ccccc45)CC3)cc21 : 0.60
CCn1cc(C(=O)O)c(=O)c2cc(F)c(N3CCN(C(=O)/C(C#N)=C/c4cn(CC#N)c5ccccc45)CC3)cc21 : 0.60
CCn1cc(C(=O)O)c(=O)c2cc(F)c(N3CCN(C(=O)/C(C#N)=C/c4c[nH]c5ccccc45)CC3)cc21 : 0.60
CCn1cc(C(=O)O)c(=O)c2cc(F)c(N3CCN(C(=O)/C(C#N)=C/c4cn(CC5CC5)c5ccccc45)CC3)cc21 : 0.60
CCn1cc(C(=O)O)c(=O)c2cc(F)c(N3CCN(C(=O)/C(C#N)=C/c4cn(CC(=O)N5CCOCC5)c5ccccc45)CC3)cc21 : 0.90
CCn1cc(C(=O)O)c(=O)c2cc(F)c(N3CCN(C(=O)/C(C#N)=C/c4c[nH]c5c(C)cccc45)CC3)cc21 : 0.60
CCCCCCCCn1cc(/C=C(\C#N)C(=O)N2CCN(c3cc4c(cc3F)c(=O)c(C(=O)O)cn4CC)CC2)c2ccccc21 : 0.00
CCCn1cc(/C=C(\C#N)C(=O)N2CCN(c3cc4c(cc3F)c(=O)c(C(=O)O)cn4CC)CC2)c2ccccc21 : -0.30
CCn1cc(C(=O)O)c(=O)c2cc(F)c(N3CCN(C(=O)/C(C#N)=C/c4cn(CC(N)=O)c5ccccc45)CC3)cc21 : 1.51

Next, consider the following compound.
Consider the compound shown here: CCn1cc(C(=O)O)c(=O)c2cc(F)c(N3CCN(C(=O)/C(C#N)=C/c4cn(Cc5ccccc5F)c5ccccc45)CC3)cc21 What is its recorded log10(MIC)?
1.51

----------
test system: Klebsiella pneumoniae; assay: Antibacterial activity against Klebsiella pneumonia assessed as inhibition of bacterial growth measured after 24 hrs incubation; assay type: functional
Each record here notes measured MIC.
Supply the numeric figure in µg/mL, leaving out any unit text.

Consider the worked cases shown below.
CCn1cc(C(=O)O)c(=O)c2cc(F)c(N3CCN(C(=O)/C(C#N)=C/c4cn(CC5CC5)c5ccccc45)CC3)cc21 : 1
CCn1cc(C(=O)O)c(=O)c2cc(F)c(N3CCN(C(=O)/C(C#N)=C/c4cn(CC5CCCCC5)c5ccccc45)CC3)cc21 : 1
CCCCCCn1cc(/C=C(\C#N)C(=O)N2CCN(c3cc4c(cc3F)c(=O)c(C(=O)O)cn4CC)CC2)c2ccccc21 : 1

Read the next record carefully.
Item CCn1cc(/C=C(\C#N)C(=O)N2CCN(c3cc4c(cc3F)c(=O)c(C(=O)O)cn4CC)CC2)c2ccccc21 has what recorded MIC?
0.25

----------
tested on: Klebsiella pneumoniae; assay: Antibacterial activity against Klebsiella pneumonia assessed as inhibition of bacterial growth measured after 24 hrs incubation; format: functional
Property label: MIC (µg/mL)
Lab book: enter the figure in µg/mL, no units written.

The examples below pair each entry with its known result.
CCn1cc(C(=O)O)c(=O)c2cc(F)c(N3CCN(C(=O)/C(C#N)=C/c4cn(CC5CCCC5)c5ccccc45)CC3)cc21 : 0.5
CCn1cc(C(=O)O)c(=O)c2cc(F)c(N3CCN(C(=O)/C(C#N)=C/c4cn(CC(=O)N5CCOCC5)c5ccccc45)CC3)cc21 : 1
CCn1cc(C(=O)O)c(=O)c2cc(F)c(N3CCN(C(=O)/C(C#N)=C/c4cn(Cc5ccccc5Cl)c5ccccc45)CC3)cc21 : 32
CCn1cc(C(=O)O)c(=O)c2cc(F)c(N3CCN(C(=O)/C(C#N)=C/c4cn(Cc5ccc(Cl)c(Cl)c5)c5ccccc45)CC3)cc21 : 1

Consider the record given below.
# MIC lookup, item CCOC(=O)Cn1cc(/C=C(\C#N)C(=O)N2CCN(c3cc4c(cc3F)c(=O)c(C(=O)O)cn4CC)CC2)c2ccccc21
0.5
